# System: SKM MF
# Method Summary: SKM MF AC1.4: ATPase of skeletal sarcomeric proteins (actin, tropomyosin, troponin complex, myosin), PK/LDH coupled enzyme system
# Type: biochemical
# Experimental Conditions: screen at pCa=6.5; † mean value, ‡ median value
Entries whose SKM MF AC1.4 is below 7 µM take label 1; entries at or above 7 µM take label 0.

>  <Molecule>
CSc1cnc2nc(O)n(C3CCCCC3)c2n1

>  <Discrete Label>
label 0

$$$$
>  <Molecule>
CCC(CC)n1c(O)nc2ncc(Br)nc21

>  <Discrete Label>
label 1

$$$$
>  <Molecule>
CCC(CC)n1c(O)nc2ncc(SC)nc21

>  <Discrete Label>
label 1

$$$$
>  <Molecule>
CCC(CN)n1c(O)nc2ncc(Br)nc21 (stereo not shown)

>  <Discrete Label>
label 1

$$$$
>  <Molecule>
CCC(C(=O)N1CCOCC1)n1c(O)nc2ncc(Br)nc21 (stereo not shown)

>  <Discrete Label>
label 0

$$$$
>  <Molecule>
CCOc1cnc2nc(O)n([C@@H](C)c3ccccc3)c2n1

>  <Discrete Label>
label 0

$$$$
>  <Molecule>
CCC(CC)n1c(O)nc2nc3ccccc3nc21

>  <Discrete Label>
label 0

$$$$

###

# System: SKM MF
# Method Summary: SKM MF AC1.4: ATPase of skeletal sarcomeric proteins (actin, tropomyosin, troponin complex, myosin), PK/LDH coupled enzyme system
# Format: biochemical
# Experimental Conditions: screen at pCa=6.5; † mean value, ‡ median value
Quick reference for SKM MF AC1.4 among some compounds

>  <Compound>
CCC(CC)n1c(O)nc2ncc(O)nc21

>  <SKM MF AC1.4>
>49 µM

$$$$
>  <Compound>
C/C=C/c1cnc2nc(O)n(C(CC)CC)c2n1

>  <SKM MF AC1.4>
0.4 µM

$$$$
>  <Compound>
CSc1cnc2nc(O)n(Cc3ccccc3)c2n1

>  <SKM MF AC1.4>
22.6 µM

$$$$
>  <Compound>
C[C@@H](c1ccccc1)n1c(O)nc2ncc(C3=CCCCC3)nc21

>  <SKM MF AC1.4>
31.0 µM

$$$$
>  <Compound>
CSc1cnc2nc(O)n([C@@H](C)c3ccccc3)c2n1

>  <SKM MF AC1.4>
1.1 µM

$$$$
>  <Compound>
CCC(CC)n1c(O)nc2nc(Br)cnc21

>  <SKM MF AC1.4>
11.5 µM

$$$$
>  <Compound>
CCC(COC)n1c(O)nc2ncc(Br)nc21 (stereo not shown)

>  <SKM MF AC1.4>
4.9 µM

$$$$
>  <Compound>
CCC(CN1CCOCC1)n1c(O)nc2nccnc21 (stereo not shown)

>  <SKM MF AC1.4>
>49 µM

$$$$
>  <Compound>
CCC/C=C\Cc1cnc2nc(O)n([C@@H](C)c3ccccc3)c2n1

>  <SKM MF AC1.4>
3.1 µM

$$$$
>  <Compound>
CCC(CC)n1c(O)nc2ncc(Cl)nc21

>  <SKM MF AC1.4>
0.7 µM

$$$$
>  <Compound>
CCC(CC)n1c(O)nc2ncc(OC)nc21

>  <SKM MF AC1.4>
2.2^‡ μM

$$$$
>  <Compound>
CC[C@@H](CO)n1c(O)nc2ncc(Br)nc21

>  <SKM MF AC1.4>
19.1 µM

$$$$
>  <Compound>
CSc1cnc2nc(O)n(C(C)C)c2n1

>  <SKM MF AC1.4>
6.7 µM

$$$$
